Target: purified recombinant HCMV polymerase from strain AD169 (UL54) (Human cytomegalovirus)
Construct: made in house; host or cells: Sf21 insect cells (baculovirus)
Test: HCMV Polymerase LANCE TR-FRET Assay
Assay type: biochemical
Settings: 2 nM GST-UL54, 37° C. for 30 min; read-out: IC50 (nM) Example B
# strict inequality: IC50 < 300 nM yields yes (1), everything else yields no (0)

| Molecule | Classification |
| --- | --- |
| Cc1nccn1Cc1ccc2c(c1F)C(C)(C)CN2C(=O)[C@H]1CC(=O)N(c2cccc(C#N)c2)C1 | no (0) |
| CC1(C)CN(C(=O)[C@H]2CC(=O)N(c3cccc(C#N)c3)C2)c2ccc(CCc3ccccc3)cc21 | no (0) |
| CC1(C)CN(C(=O)[C@H]2CC(=O)N(c3cccc(C#N)c3)C2)c2ccc(CCc3ccccn3)cc21 | no (0) |
| Cc1oncc1Cc1ccc2c(c1)CCN2C(=O)[C@H]1CC(=O)N(c2cccc(C#N)c2)C1 | yes (1) |
| CC1CN(C(=O)[C@H]2CC(=O)N(c3cccc(C#N)c3)C2)c2ccc(CCc3cncnc3)cc21 (single isomer, unassigned) | yes (1) |
| CC1(C)CN(C(=O)[C@H]2CC(=O)N(c3cccc(C#N)c3)C2)c2ccc(CCc3cncnc3)cc21 | yes (1) |

Problem: For the molecule CC1(C)CN(C(=O)[C@H]2CC(=O)N(c3cccc(C#N)c3)C2)c2ccc(CCn3ccnc3)cc21 , is IC50 under 300 nM?
Solution: yes (1)

Problem: For the molecule Cn1cncc1CCc1ccc2c(c1)C(C)(C)CN2C(=O)[C@H]1CC(=O)N(c2cccc(C#N)c2)C1 , is IC50 under 300 nM?
Solution: no (0)

Problem: For the molecule CC1(C)CN(C(=O)[C@H]2CC(=O)N(c3cccc(C#N)c3)C2)c2ccc(Cn3cnnc3)cc21 , is IC50 under 300 nM?
Solution: yes (1)

Problem: For the molecule CC1(C)CN(C(=O)[C@H]2CC(=O)N(c3cccc(C#N)c3)C2)c2ccc(CCc3cccc(O)c3)cc21 , is IC50 under 300 nM?
Solution: yes (1)

Problem: For the molecule Cc1nccn1Cc1cc2c(cc1Cl)N(C(=O)[C@H]1CC(=O)N(c3cccc(C#N)c3)C1)CC2(C)C , is IC50 under 300 nM?
Solution: yes (1)

Problem: For the molecule Cc1ncc(Cc2ccc3c(c2)C(C)(CO)CN3C(=O)[C@H]2CC(=O)N(c3cccc(Cl)c3)C2)o1 (single isomer, unassigned) , is IC50 under 300 nM?
Solution: no (0)

Problem: For the molecule Cc1nccn1Cc1cc2c(cc1F)N(C(=O)[C@H]1CC(=O)N(c3cccc(C#N)c3)C1)CC2(C)C , is IC50 under 300 nM?
Solution: yes (1)

###

Below: a set of entries, each annotated with reported IC50.
Molecular target: purified recombinant HCMV polymerase from strain AD169 (UL54) (Human cytomegalovirus, UniProt P08546)
Construct: made in house; host or cells: Sf21 insect cells (baculovirus)
Sequence (P08546 whole entry): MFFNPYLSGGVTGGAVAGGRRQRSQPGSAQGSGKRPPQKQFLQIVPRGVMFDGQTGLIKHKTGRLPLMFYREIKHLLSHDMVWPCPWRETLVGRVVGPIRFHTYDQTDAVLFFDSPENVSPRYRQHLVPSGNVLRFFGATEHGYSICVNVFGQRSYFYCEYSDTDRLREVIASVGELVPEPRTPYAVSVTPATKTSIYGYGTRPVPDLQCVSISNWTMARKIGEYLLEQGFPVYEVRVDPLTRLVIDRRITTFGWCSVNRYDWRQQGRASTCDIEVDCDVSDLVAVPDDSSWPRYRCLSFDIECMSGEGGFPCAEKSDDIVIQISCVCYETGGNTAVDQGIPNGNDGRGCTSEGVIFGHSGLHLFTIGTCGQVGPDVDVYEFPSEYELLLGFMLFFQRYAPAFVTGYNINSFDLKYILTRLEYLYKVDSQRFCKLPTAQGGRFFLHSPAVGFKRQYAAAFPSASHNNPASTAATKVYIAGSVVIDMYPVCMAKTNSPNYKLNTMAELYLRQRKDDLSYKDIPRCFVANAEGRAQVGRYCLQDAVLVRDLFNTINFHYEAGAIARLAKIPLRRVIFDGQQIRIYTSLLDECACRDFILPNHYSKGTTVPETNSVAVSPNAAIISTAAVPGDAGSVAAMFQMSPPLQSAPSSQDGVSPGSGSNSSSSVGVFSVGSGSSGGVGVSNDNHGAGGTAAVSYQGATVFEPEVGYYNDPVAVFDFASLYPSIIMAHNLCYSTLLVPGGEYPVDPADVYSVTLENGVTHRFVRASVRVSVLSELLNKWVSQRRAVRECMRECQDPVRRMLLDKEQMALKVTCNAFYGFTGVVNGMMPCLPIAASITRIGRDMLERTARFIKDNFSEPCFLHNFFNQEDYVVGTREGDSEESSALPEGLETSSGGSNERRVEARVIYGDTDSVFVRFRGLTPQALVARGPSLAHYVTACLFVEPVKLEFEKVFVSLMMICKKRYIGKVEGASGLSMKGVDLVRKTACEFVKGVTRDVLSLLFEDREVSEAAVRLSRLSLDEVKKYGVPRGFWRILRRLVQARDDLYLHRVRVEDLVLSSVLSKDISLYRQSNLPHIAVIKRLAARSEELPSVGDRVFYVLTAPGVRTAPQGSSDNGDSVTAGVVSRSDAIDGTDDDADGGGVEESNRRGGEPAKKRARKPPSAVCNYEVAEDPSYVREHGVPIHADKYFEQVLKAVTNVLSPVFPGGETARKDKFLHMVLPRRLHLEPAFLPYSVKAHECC
Assay: HCMV Polymerase LANCE TR-FRET Assay
Type: biochemical
Details: 2 nM GST-UL54, 37° C. for 30 min; read-out: IC50 (nM) Example B
Field format: number, assumed nM, no unit text.

Problem: Fill in reported IC50 for this entry: CC1(C)CN(C(=O)[C@H]2CC(=O)N(c3cccc(C#N)c3)C2)c2cc(Cl)c(CCn3ccnc3)cc21 [17b1]
Solution: 330

Problem: Fill in reported IC50 for this entry: Cc1ccc(CCc2ccc3c(c2)C(C)(C)CN3C(=O)[C@H]2CC(=O)N(c3cccc(C#N)c3)C2)cn1 [11ss1]
Solution: 130

Problem: Fill in reported IC50 for this entry: CC1(C)CN(C(=O)[C@H]2CC(=O)N(c3cccc(C#N)c3)C2)c2ccc(Cn3ccnc3CC(=O)O)cc21 [24a1]
Solution: 690
